Measured Final size (nm), listed per entry.
PROTOCOL_SUMMARY: Particle size and PDI by dynamic light scattering (Malvern Zetasizer)
Format: physicochemical
CONDITION_DETAILS: lipid/DSPC/CHOL/AVANTI 880150P 50/28/18/4, N/P 3.43
Field note: include the unit after the figure.

CCCCC/C=C\C/C=C\CCCCCCCCOCC(CN1CCCC1c1ccccc1)OCCOCCO[C@H]1CC[C@@]2(C)C(=CC[C@H]3[C@@H]4CC[C@H]([C@H](C)CCCC(C)C)[C@@]4(C)CC[C@@H]32)C1 (stereo partly shown) : 100 nm
CCCCC/C=C\C/C=C\CCCCCCCCOCC(CN1CC=CCC1)OCCOCCO[C@H]1CC[C@@]2(C)C(=CCC3C2CC[C@@]2(C)C3CC[C@@H]2[C@H](C)CCCC(C)C)C1 (stereo partly shown) : 119 nm
CCCCC/C=C\C/C=C\CCCCCCCCOCC(CN1CCC(N2CCOCC2)C1)OCCOCCO[C@H]1CC[C@@]2(C)C(=CC[C@H]3[C@@H]4CC[C@H]([C@H](C)CCCC(C)C)[C@@]4(C)CC[C@@H]32)C1 (stereo partly shown) : 116 nm

[in] Supply reported Final size (nm) belonging to this compound: CCCCC/C=C\C/C=C\CCCCCCCCOCC(CN1CC[C@@H]2CCCC[C@@H]2C1)OCCOCCO[C@H]1CC[C@@]2(C)C(=CCC3C2CC[C@@]2(C)C3CC[C@@H]2[C@H](C)CCCC(C)C)C1 (stereo partly shown)
[out] 85 nm

###

Measured pKa, listed per entry.
PROTOCOL_SUMMARY: pKa of the lipid by TNS fluorescence
Format: physicochemical
CONDITION_DETAILS: pKa

CCCCCCCC/C=C\CCCCCCCCOCC(CN1CCCCC1)OCCCOC(=O)CCC(=O)O[C@H]1CC[C@@]2(C)C(=CC[C@H]3[C@@H]4CC[C@H]([C@H](C)CCCC(C)C)[C@@]4(C)CC[C@@H]32)C1 (stereo partly drawn) : 5.92
CCCCCCCC/C=C\CCCCCCCCOCC(CN1CCOCC1)OCCOCC(=O)OC1CC[C@@]2(C)C(=CCC3C2CC[C@@]2(C)C3CC[C@@H]2[C@H](C)CCCC(C)C)C1 (stereo partly drawn) : 5.21
CCCCC/C=C\C/C=C\CCCCCCCCOCC(CN1CCOCC1)OCCCCO[C@H]1CC[C@@]2(C)C(=CCC3C2CC[C@@]2(C)C3CC[C@@H]2[C@H](C)CCCC(C)C)C1 (stereo partly drawn) : 4.8
CCCCCCCC/C=C\CCCCCCCCOCC(CN1CCCCC1)OCCCOCCCO[C@H]1CC[C@@]2(C)C(=CC[C@H]3[C@@H]4CC[C@H]([C@H](C)CCCC(C)C)[C@@]4(C)CC[C@@H]32)C1 (stereo partly drawn) : 5.72
CCCCC/C=C\C/C=C\CCCCCCCCOCC(CN1CCC(OC)C1)OCCOCCO[C@H]1CC[C@@]2(C)C(=CC[C@H]3[C@@H]4CC[C@H]([C@H](C)CCCC(C)C)[C@@]4(C)CC[C@@H]32)C1 (stereo partly drawn) : 6.62
CCCCC/C=C\C/C=C\CCCCCCCCOCC(CN1CCCCC1)OCCOCCO[C@H]1CC[C@@]2(C)C(=CCC3C2CC[C@@]2(C)C3CC[C@@H]2[C@H](C)CCCC(C)C)C1 (stereo partly drawn) : 6.4
CCCCC/C=C\C/C=C\CCCCCCCCCCOCC(CN1CCCCC1)OCCCOCCCO[C@H]1CC[C@@]2(C)C(=CC[C@H]3[C@@H]4CC[C@H]([C@H](C)CCCC(C)C)[C@@]4(C)CC[C@@H]32)C1 (stereo partly drawn) : 5.77
CCCCCCCC/C=C\CCCCCCCCOCC(CN1CCC(OC)C1)OCCOCCO[C@H]1CC[C@@]2(C)C(=CC[C@H]3[C@@H]4CC[C@H]([C@H](C)CCCC(C)C)[C@@]4(C)CC[C@@H]32)C1 (stereo partly drawn) : 6.83

We now examine a further molecule.
[in] Supply reported pKa belonging to this molecule: CCCCC/C=C\C/C=C\CCCCCCCCCCOCC(CN1CCCC1C)OCCCOCCCO[C@H]1CC[C@@]2(C)C(=CC[C@H]3[C@@H]4CC[C@H]([C@H](C)CCCC(C)C)[C@@]4(C)CC[C@@H]32)C1 (stereo partly drawn)
[out] 5.84

###

Measured PDI, listed per entry.
PROTOCOL_SUMMARY: Particle size and PDI by dynamic light scattering (Malvern Zetasizer)
Type: physicochemical
CONDITION_DETAILS: lipid/DSPC/CHOL/AVANTI 880150P 50/28/18/4, N/P 3.43
Just the number, please, no unit after it.

For orientation, consider the following solved cases.
CCCCC/C=C\C/C=C\CCCCCCCCOCC(CN1CCC(C)CC1)OCCOCCO[C@H]1CC[C@@]2(C)C(=CC[C@H]3[C@@H]4CC[C@H]([C@H](C)CCCC(C)C)[C@@]4(C)CC[C@@H]32)C1 (stereo partly drawn) : 0.168
CCCCC/C=C\C/C=C\CCCCCCCCOCC(CN1C[C@@H](C)O[C@@H](C)C1)OCCOCCO[C@H]1CC[C@@]2(C)C(=CC[C@H]3[C@@H]4CC[C@H]([C@H](C)CCCC(C)C)[C@@]4(C)CC[C@@H]32)C1 (stereo partly drawn) : 0.04
CCCCC/C=C\C/C=C\CCCCCCCCOCC(CN1CC=CCC1)OCCOCCO[C@H]1CC[C@@]2(C)C(=CCC3C2CC[C@@]2(C)C3CC[C@@H]2[C@H](C)CCCC(C)C)C1 (stereo partly drawn) : 0.095
CCCCC/C=C\C/C=C\CCCCCCCCOCC(CN1CCC(F)(F)CC1)OCCOCCO[C@H]1CC[C@@]2(C)C(=CCC3C2CC[C@@]2(C)C3CC[C@@H]2[C@H](C)CCCC(C)C)C1 (stereo partly drawn) : 0.095
CCCCC/C=C\C/C=C\CCCCCCCCOCC(CN1CCC2(CC1)OCCO2)OCCOCCO[C@H]1CC[C@@]2(C)C(=CCC3C2CC[C@@]2(C)C3CC[C@@H]2[C@H](C)CCCC(C)C)C1 (stereo partly drawn) : 0.175
CCCCC/C=C\C/C=C\CCCCCCCCOCC(CN(C)C)OCCCCO[C@H]1CC[C@@]2(C)C(=CCC3C2CC[C@@]2(C)C3CC[C@@H]2[C@H](C)CCCC(C)C)C1 (stereo partly drawn) [E0173, reference compound] : 0.17

[in] Supply reported PDI belonging to this compound: CCCCC/C=C\C/C=C\CCCCCCCCOCC(CN1CC[C@@H]2CCCC[C@H]2C1)OCCOCCO[C@H]1CC[C@@]2(C)C(=CCC3C2CC[C@@]2(C)C3CC[C@@H]2[C@H](C)CCCC(C)C)C1 (stereo partly drawn)
[out] 0.138

[in] Supply reported PDI belonging to this compound: CCCCC/C=C\C/C=C\CCCCCCCCOCC(CN1CCCCC1)OC(=O)CCC(=O)O[C@H]1CC[C@@]2(C)C(=CCC3C2CC[C@@]2(C)C3CC[C@@H]2[C@H](C)CCCC(C)C)C1 (stereo partly drawn)
[out] 0.12

[in] Supply reported PDI belonging to this compound: CCCCC/C=C\C/C=C\CCCCCCCCOCC(CN1CCCC1c1ccccc1)OCCOCCO[C@H]1CC[C@@]2(C)C(=CC[C@H]3[C@@H]4CC[C@H]([C@H](C)CCCC(C)C)[C@@]4(C)CC[C@@H]32)C1 (stereo partly drawn)
[out] 0.21

###

PROTOCOL_SUMMARY: Particle size and PDI by dynamic light scattering (Malvern Zetasizer)
Format: physicochemical
CONDITION_DETAILS: lipid/no neutral lipid/CHOL/GM-020 NOF 60/0/36/4, N/P 3
OBSERVABLE: Final size (nm)

CCCCCCCC/C=C\CCCCCCCCOCC(CN1CCCCC1)OCCO[C@H]1CC[C@@]2(C)C(=CC[C@H]3[C@@H]4CC[C@H]([C@H](C)CCCC(C)C)[C@@]4(C)CC[C@@H]32)C1 (some centres unmarked) : 139.4 nm
CCCCCCCC/C=C\CCCCCCCCOCC(CN1CCC(OC)C1)OCCOCCO[C@H]1CC[C@@]2(C)C(=CC[C@H]3[C@@H]4CC[C@H]([C@H](C)CCCC(C)C)[C@@]4(C)CC[C@@H]32)C1 (some centres unmarked) : 169.2 nm
CCCCCCCC/C=C\CCCCCCCCOCC(CN1CCCC1C)OCCOCCO[C@H]1CC[C@@]2(C)C(=CC[C@H]3[C@@H]4CC[C@H]([C@H](C)CCCC(C)C)[C@@]4(C)CC[C@@H]32)C1 (some centres unmarked) : 153.01 nm
CCCCC/C=C\C/C=C\CCCCCCCCOCC(CN1CCCC1C)OCCOCCOCCO[C@H]1CC[C@@]2(C)C(=CC[C@H]3[C@@H]4CC[C@H]([C@H](C)CCCC(C)C)[C@@]4(C)CC[C@@H]32)C1 (some centres unmarked) : 105.1 nm
CCCCC/C=C\C/C=C\CCCCCCCCCCOCC(CN1CCCC1C)OCCO[C@H]1CC[C@@]2(C)C(=CC[C@H]3[C@@H]4CC[C@H]([C@H](C)CCCC(C)C)[C@@]4(C)CC[C@@H]32)C1 (some centres unmarked) : 150.9 nm
CCCCC/C=C\C/C=C\CCCCCCCCOCC(CN1CCCCC1)OCCOCCOCCOCCO[C@H]1CC[C@@]2(C)C(=CC[C@H]3[C@@H]4CC[C@H]([C@H](C)CCCC(C)C)[C@@]4(C)CC[C@@H]32)C1 (some centres unmarked) : 106.2 nm
CCCCC/C=C\C/C=C\CCCCCCCCOCC(CN1CCCC1C)OCCOCCO[C@H]1CC[C@@]2(C)C(=CC[C@H]3[C@@H]4CC[C@H]([C@H](C)CCCC(C)C)[C@@]4(C)CC[C@@H]32)C1 (some centres unmarked) : 113.4 nm
CCCCC/C=C\C/C=C\CCCCCCCCOCC(CN1CCCCC1)OCCCOCCCO[C@H]1CC[C@@]2(C)C(=CC[C@H]3[C@@H]4CC[C@H]([C@H](C)CCCC(C)C)[C@@]4(C)CC[C@@H]32)C1 (some centres unmarked) : 109.8 nm

[in] Supply reported Final size (nm) belonging to this compound: CCCCC/C=C\C/C=C\CCCCCCCCOCOCC(CN1CCCCC1)OCCOCCO[C@H]1CC[C@@]2(C)C(=CC[C@H]3[C@@H]4CC[C@H]([C@H](C)CCCC(C)C)[C@@]4(C)CC[C@@H]32)C1 (some centres unmarked)
[out] 162.5 nm

[in] Supply reported Final size (nm) belonging to this compound: CCCCCCCC/C=C\CCCCCCCCOCC(CN1CCCCC1)OCCCOCCCO[C@H]1CC[C@@]2(C)C(=CC[C@H]3[C@@H]4CC[C@H]([C@H](C)CCCC(C)C)[C@@]4(C)CC[C@@H]32)C1 (some centres unmarked)
[out] 122.6 nm

[in] Supply reported Final size (nm) belonging to this compound: CCCCC/C=C\C/C=C\CCCCCCCCOCC(CN1CCC(OC)C1)OCCCOCCCO[C@H]1CC[C@@]2(C)C(=CC[C@H]3[C@@H]4CC[C@H]([C@H](C)CCCC(C)C)[C@@]4(C)CC[C@@H]32)C1 (some centres unmarked)
[out] 110.7 nm

[in] Supply reported Final size (nm) belonging to this compound: CCCCC/C=C\C/C=C\CCCCCCCCCCOCC(CN1CCOCC1)OCCO[C@H]1CC[C@@]2(C)C(=CC[C@H]3[C@@H]4CC[C@H]([C@H](C)CCCC(C)C)[C@@]4(C)CC[C@@H]32)C1 (some centres unmarked)
[out] 174.0 nm

[in] Supply reported Final size (nm) belonging to this compound: CCCCCCCC/C=C\CCCCCCCCOCC(CN1CCCCC1)OCCOCCO[C@H]1CC[C@@]2(C)C(=CC[C@H]3[C@@H]4CC[C@H]([C@H](C)CCCC(C)C)[C@@]4(C)CC[C@@H]32)C1 (some centres unmarked)
[out] 155.5 nm

[in] Supply reported Final size (nm) belonging to this compound: CCCCCCCC/C=C\CCCCCCCCOCC(CN1CCC(OC)C1)OCCO[C@H]1CC[C@@]2(C)C(=CC[C@H]3[C@@H]4CC[C@H]([C@H](C)CCCC(C)C)[C@@]4(C)CC[C@@H]32)C1 (some centres unmarked)
[out] 145.1 nm
